Hey, just so you know, these numbers are from ChEMBL document CHEMBL1124270.

- System: Escherichia coli
- Protocol: Minimum inhibitory concentration against Escherichia coli vogel in vitro.
- Assay type: functional
Readout type: MIC (µg/mL)
Give the quantity in µg/mL, number only.

See these solved cases before continuing.
> print(dat)
                                   compound  readout.type  observed.value
1  NC1CCN(c2nc3c(cc2F)c(=O)c(C(=O)O)cn3C2CC2)C1 (stereo not given)           MIC           0.013
2  CCNCC1CCN(c2nc3c(cc2F)c(=O)c(C(=O)O)cn3C2CC2)C1 (stereo not given)           MIC             0.1
3  Cl.NC1CCN(c2c(F)cc3c(=O)c(C(=O)O)cn(C4CC4)c3c2F)C1 (stereo not given)           MIC           0.013
4  CNCC1CCN(c2c(F)cc3c(=O)c(C(=O)O)cn4c3c2OCC4C)C1 (stereo not given)           MIC             0.2
5  CCNCC1CCN(c2cc3c(cc2F)c(=O)c(C(=O)O)cn3C2CC2)C1.Cl (stereo not given)           MIC             0.2
6  CN(C)CC1CCN(c2c(F)cc3c(=O)c(C(=O)O)cn(C4CC4)c3c2Cl)C1 (stereo not given)           MIC             0.1
7  CNCC1CCN(c2nc3c(cc2F)c(=O)c(C(=O)O)cn3C2CC2)C1 (stereo not given)           MIC             0.1
8  CNCC1CCN(c2c(F)cc3c(=O)c(C(=O)O)cn(C4CC4)c3c2N)C1.Cl (stereo not given)           MIC             0.8

Query string: Quote MIC reported for CCNCC1CCN(c2c(F)cc3c(=O)c(C(=O)O)cn(C4CC4)c3c2N)C1.Cl.Cl (stereo not given) please.
Result string: 0.4

Query string: Quote MIC reported for O=C(O)c1cn(C2CC2)c2c(F)c(N3CCNCC3)c(F)cc2c1=O please.
Result string: 0.1
